Target: Sodium- and chloride-dependent GABA transporter 1 (Mus musculus)
Assay: Inhibition of mouse GAT1 expressed in HEK293 cells assessed as decrease in [3H]GABA uptake preincubated for 25 mins followed by [3H]GABA addition measured after 4 mins by liquid scintillation counting analysis
Quick reference for log10 of IC50 among some compounds
Remember, log10 of IC50, in µM.

These recorded examples may help you get a feel for the data.
[
  {
    "compound": "COc1ccc(C(C#CCN2CCCC(C(=O)O)C2)(c2ccc(OC)cc2)c2ccc(OC)cc2)cc1 (racemic)",
    "targetUnderTest": "Sodium- and chloride-dependent GABA transporter 1 (Mus musculus)",
    "measurement": 1.16
  },
  {
    "compound": "COc1ccc(C(C#CCCN2CCCC(C(=O)O)C2)(c2ccc(OC)cc2)c2ccc(OC)cc2)cc1 (racemic)",
    "targetUnderTest": "Sodium- and chloride-dependent GABA transporter 1 (Mus musculus)",
    "measurement": 1.20
  },
  {
    "compound": "COc1ccc(C(OCCN2CCCC(C(=O)O)C2)(c2ccc(OC)cc2C)c2ccc(OC)cc2C)cc1 (stereo not given)",
    "targetUnderTest": "Sodium- and chloride-dependent GABA transporter 1 (Mus musculus)",
    "measurement": 1.83
  },
  {
    "compound": "COc1ccc(C(C#CCN2CCCC(C(=O)O)C2)c2ccc(OC)cc2)cc1 (racemic)",
    "targetUnderTest": "Sodium- and chloride-dependent GABA transporter 1 (Mus musculus)",
    "measurement": 0.57
  }
]

Attention now turns to another entry.
(Q) What value of log10 of IC50 has been recorded for this entry: COc1ccc(C(C#CCN2CCCC(C(=O)O)C2)(c2ccc(OC)cc2)c2ccc3c(c2)OCO3)cc1 (racemic)
(A) 1.36

The origin of these recorded values is ChEMBL document CHEMBL4118262.
